- ASSAY_METHOD_TEXT: absorbability study in mice, ELISA detection
- Assay type: in vivo
- SETUP_CONDITIONS: CD1, mouse, serum, IV and oral, FIG. 10a, read-out: bioavailable
Where a SMILES comes first, the peptide text is derived from it. Bridges are numbered along the chain shown (N, C = ends).
MEASURE: bioavailability

(Q) If you can, please state the reported bioavailability value of C[C@@H]1NC(=O)[C@@H]2CCCN2C(=O)[C@H](CC(N)=O)NC(=O)[C@@H]2CSSC[C@H](N)C(=O)N[C@H]3CSSC[C@H](NC1=O)C(=O)N[C@@H]([C@@H](C)O)C(=O)NCC(=O)N[C@H](C(=O)N[C@@H](Cc1ccc(O)cc1)C(=O)O)CSSC[C@H](NC(=O)[C@H](Cc1ccc(O)cc1)NC(=O)[C@H](CCC(=O)O)NC3=O)C(=O)N2 [SEQ ID NO:3] (H-CCEYCCNPACTGCY-OH; disulfide 1-6, 2-10, 5-13; N-terminus and C-terminus assumed) .
(A) < 2.2%

====

- ASSAY_METHOD_TEXT: oral bioavailability in mice, radioimmunoassay (RIA)
- SETUP_CONDITIONS: female, CD-1, mouse, in vivo, 8 mg/kg oral, read-out: AUCp.o.,(0-4h)
Where a SMILES comes first, the peptide text is derived from it. Bridges are numbered along the chain shown (N, C = ends).
MEASURE: AUC

(Q) Report AUC for C[C@@H]1NC(=O)[C@@H]2CCCN2C(=O)[C@H](CC(N)=O)NC(=O)[C@@H]2CSSC[C@H](N)C(=O)N[C@H]3CSSC[C@H](NC1=O)C(=O)N[C@@H]([C@@H](C)O)C(=O)NCC(=O)N[C@H](C(=O)N[C@@H](Cc1ccc(O)cc1)C(=O)O)CSSC[C@H](NC(=O)[C@H](Cc1ccc(O)cc1)NC(=O)[C@H](CCC(=O)O)NC3=O)C(=O)N2 [SEQ ID NO:3] (H-CCEYCCNPACTGCY-OH; disulfide 1-6, 2-10, 5-13; N-terminus and C-terminus assumed) please.
(A) ≤ 11.5 ng·h/mL

====

- ASSAY_METHOD_TEXT: oral bioavailability in mice, radioimmunoassay (RIA)
- SETUP_CONDITIONS: female, CD-1, mouse, in vivo, oral, 8 mg/kg, over 4 hours, read-out: bioavailability (F)
Where a SMILES comes first, the peptide text is derived from it. Bridges are numbered along the chain shown (N, C = ends).
MEASURE: bioavailability

(Q) // query bioavailability value for entry C[C@@H]1NC(=O)[C@@H]2CCCN2C(=O)[C@H](CC(N)=O)NC(=O)[C@@H]2CSSC[C@H](N)C(=O)N[C@H]3CSSC[C@H](NC1=O)C(=O)N[C@@H]([C@@H](C)O)C(=O)NCC(=O)N[C@H](C(=O)N[C@@H](Cc1ccc(O)cc1)C(=O)O)CSSC[C@H](NC(=O)[C@H](Cc1ccc(O)cc1)NC(=O)[C@H](CCC(=O)O)NC3=O)C(=O)N2 [SEQ ID NO:3] (H-CCEYCCNPACTGCY-OH; disulfide 1-6, 2-10, 5-13; N-terminus and C-terminus assumed)
(A) ≤ 0.04%

====

- ASSAY_METHOD_TEXT: bioavailability study in mice, LCMS detection
- Format: in vivo
- SETUP_CONDITIONS: CD1, mouse, serum, IV and oral, FIG. 10b, read-out: bioavailable
Where a SMILES comes first, the peptide text is derived from it. Bridges are numbered along the chain shown (N, C = ends).
MEASURE: bioavailability

(Q) Look up bioavailability for this compound: C[C@@H]1NC(=O)[C@@H]2CCCN2C(=O)[C@H](CC(N)=O)NC(=O)[C@@H]2CSSC[C@H](N)C(=O)N[C@H]3CSSC[C@H](NC1=O)C(=O)N[C@@H]([C@@H](C)O)C(=O)NCC(=O)N[C@H](C(=O)N[C@@H](Cc1ccc(O)cc1)C(=O)O)CSSC[C@H](NC(=O)[C@H](Cc1ccc(O)cc1)NC(=O)[C@H](CCC(=O)O)NC3=O)C(=O)N2 [SEQ ID NO:3] (H-CCEYCCNPACTGCY-OH; disulfide 1-6, 2-10, 5-13; N-terminus and C-terminus assumed)
(A) < 0.11%

Where these numbers come from: patent US20090305993A1
